Target Under Test: Lysosomal alpha-mannosidase (Homo sapiens)
Sequence (O00754 whole entry): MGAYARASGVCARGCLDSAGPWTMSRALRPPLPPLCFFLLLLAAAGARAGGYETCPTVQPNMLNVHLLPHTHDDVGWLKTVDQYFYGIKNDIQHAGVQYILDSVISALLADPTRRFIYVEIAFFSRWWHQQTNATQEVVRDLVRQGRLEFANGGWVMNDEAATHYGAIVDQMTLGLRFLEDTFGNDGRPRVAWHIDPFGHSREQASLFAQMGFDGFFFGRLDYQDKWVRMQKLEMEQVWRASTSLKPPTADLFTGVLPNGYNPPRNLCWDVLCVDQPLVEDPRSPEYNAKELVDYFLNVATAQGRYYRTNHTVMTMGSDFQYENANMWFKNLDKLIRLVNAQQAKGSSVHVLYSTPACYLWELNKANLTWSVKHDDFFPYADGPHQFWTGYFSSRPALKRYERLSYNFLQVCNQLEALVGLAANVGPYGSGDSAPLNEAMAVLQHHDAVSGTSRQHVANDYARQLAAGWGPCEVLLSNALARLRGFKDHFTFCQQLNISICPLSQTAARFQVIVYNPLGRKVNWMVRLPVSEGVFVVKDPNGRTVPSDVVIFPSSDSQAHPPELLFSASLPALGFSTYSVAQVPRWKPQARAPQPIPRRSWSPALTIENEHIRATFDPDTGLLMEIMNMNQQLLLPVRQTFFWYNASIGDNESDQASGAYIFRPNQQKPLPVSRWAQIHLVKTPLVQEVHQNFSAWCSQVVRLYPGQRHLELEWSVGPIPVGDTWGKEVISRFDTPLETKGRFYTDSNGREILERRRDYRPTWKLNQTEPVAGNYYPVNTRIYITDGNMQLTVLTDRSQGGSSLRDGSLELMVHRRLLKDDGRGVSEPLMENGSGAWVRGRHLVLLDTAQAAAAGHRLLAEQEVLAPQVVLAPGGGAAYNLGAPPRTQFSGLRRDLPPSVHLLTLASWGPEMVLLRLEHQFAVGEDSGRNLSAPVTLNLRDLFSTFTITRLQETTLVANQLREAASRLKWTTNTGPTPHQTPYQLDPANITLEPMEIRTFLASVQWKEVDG
Procedure Summary: Inhibition of alpha-mannosidase in human LNZ308 cells
Assay type: cell-based
pIC50: −log10 of the molar value.
Result Type: pIC50

Use the examples below as a reference point.
[
  {
    "Molecule": "O=C(OC[C@H](NC[C@H]1NC[C@H](O)[C@@H]1O)c1ccccc1)c1ccc(Br)cc1",
    "pIC50": 4.12
  },
  {
    "Molecule": "CN1C(=O)[C@H](O)[C@H](O)[C@H]1CN[C@@H](CO)c1ccccc1",
    "pIC50": 6.30
  },
  {
    "Molecule": "O[C@H]1[C@H]2[C@H](O)CCCN2C[C@H]1O [TRIDOLGOSIR]",
    "pIC50": 7.70
  },
  {
    "Molecule": "O=C(OC[C@H](NC[C@H]1NC(=O)[C@H](O)[C@@H]1O)c1ccccc1)c1ccc(Br)cc1",
    "pIC50": 3.82
  },
  {
    "Molecule": "O=C1N[C@H](CN[C@@H](CO)c2ccccc2)[C@@H](O)[C@H]1O",
    "pIC50": 4.30
  }
]

(P) OC[C@H](NC[C@H]1NC[C@H](O)[C@@H]1O)c1ccccc1
(Q) CN1C(=O)[C@H](O)[C@H](O)[C@H]1CN[C@@H](COC(=O)c1ccc(Br)cc1)c1ccccc1
Could you determine which record has the numerically smaller pIC50? Candidates: P and Q Could you answer with the label of the item you picked?
P

Origin of measurements: ChEMBL document CHEMBL1155812
